Data provenance: PubChem BioAssay (NCI)

# System: HOP-92 NSCLC
# test: NCI-60 one-dose screen, 48 h
# condition summary: 10 µM
About 83,000 compounds went through this panel and 20% of them were active in at least one assay; those are over-represented in the sample as a whole. Calls of active or inactive are those of the source. How the source made its calls: active means growth percent below 10; inactive means the rest.
Respond with a class label; see 1 (yes) (active), 0 (no) (inactive)

Here are 5 molecules together with their reported answers.
• COc1ccc(NC(=O)/C=C(C)/C=C/C=C(C)/C=C/C2=C(C)CCCC2(C)C)cc1 = 0 (no)
• CC1Cc2cc(F)ccc2-n2cccc21 (stereo not given) = 0 (no)
• O=C(/C=C\c1ccccc1Cl)c1ccccc1 = 0 (no)
• COc1ccc(/C(=C(\c2ccccc2)[N+](=O)[O-])c2ccc(OCCN3CCCC3)cc2)cc1 = 0 (no)
• CCCC(CCC)Oc1ccc(CCCC2=C(O)c3ccccc3C(=O)C2=O)cc1 = 0 (no)

Q: For this molecule, state the assay outcome: COC1=CC(c2ccc[nH]2)=N/C1=C\c1[nH]c(C)c(C(=O)CCCCC(=O)NC(C)(C)C)c1C
Ans: 1 (yes)

Q: Short answer needed: outcome of this test for COC(c1ccccc1)C(Br)C(=O)c1ccccc1 (stereo not given) ?
Ans: 0 (no)

Q: Name the outcome recorded for Cc1ncc(C(=O)Nc2ccc(CN3CCN(C)CC3)c(C(F)(F)F)c2)cc1C#Cc1cnc(NC2CC2)c2ncccc12 in the assay.
Ans: 0 (no)

Q: What was the test verdict on C/C=C(/C)C(=O)OC1C=C(CO)C(=O)C(OC(=O)/C(C)=C\C)C1C(C)C (stereo not given) ?
Ans: 1 (yes)

Q: Assay outcome for CCCC(=O)Nc1ccccc1C(=O)O : what was it?
Ans: 0 (no)

====

# Tested on: LOX IMVI melanoma
# test: NCI-60 one-dose screen, 48 h
# condition summary: 10 µM unless noted
Compounds without any hit were thinned out: in the full panel of roughly 83,000, 20% have a hit. Calls of active or inactive are those of the source. The calls were made as follows: active = growth percent below 10; inactive = the rest.
// classify into 1 (active), 0 (inactive)

Solved entries (count: 5):
- COc1cc(OC)c(NC(=O)n2ncc3cc(Nc4ncnc5ccccc45)ccc32)cc1Cl: 0
- CCCCCCCCCC(C)NC(=O)CCl (centres undefined): 0
- CCC(C)C1NC(=O)C(CC(C)C)NC(=O)C(C)NC(=O)C(C(C)C)NC(=O)C(CCCCN)NC(=O)C(CC(C)C)NC(=O)C(C(C)C)NC(=O)[C@H](C)NC(=O)C(C(C)CC)NC(=O)C(CCCN=C(N)N)NC(=O)C(CCCCN)NC(=O)C(CCCN=C(N)N)NC(=O)C(CCCCN)NC(=O)C([C@H](C)CC)NC(=O)C(CCCCN)NC1=O (some centres undefined): 0
- COc1cc(CNC(=O)CCCC/C=C/C(C)C)ccc1OCc1nnc(Nc2ccccc2F)o1: 0
- O=C(O)COc1ccc([N+](=O)[O-])cc1Cl: 0

Q: Answer briefly: the call reported for Ic1ccc(SSc2ccc(I)cc2)cc1 in this assay.
Ans: 1

Q: For this molecule, state the assay outcome: COC(=O)[C@H](Cc1cn(C)cn1)NC(=O)[C@@H](NC(=O)Nc1cc(C(F)(F)F)cc(C(F)(F)F)c1)C(C)(C)C
Ans: 1

Q: I would be grateful if you could indicate the recorded call for COc1cc2c(c3c1c(=O)c1cccc(F)c1n3C)C=CC(C)(C)O2 .
Ans: 0

Q: Test call for this molecule, please: CC(C)OC(=O)Nn1cnc2ccccc21
Ans: 0

Q: Outcome? CCOc1ccc2nc3ccc(Cl)cc3nc2c1
Ans: 0
